Reference source for all entries: patent US20250230193A1

Tested on: human lung cancer strain NCI-H441
protocolSummary: cells
recordedConditions: NCI-H441, 96 h, read-out: NCI-H441 IC50 (nM)
Field: IC50. Provide a value for each of the compounds that follow.
Report only the number, with the unit nM understood.

GET IC50 | system: human lung cancer strain NCI-H441 | item: CC[C@H](C)[C@@H]1NC(=O)[C@H](CC)N(C)C(=O)C[C@@H](C(=O)N(C)C)N(C)C(=O)[C@H](C2CCCC2)N(C)C(=O)C2(CCCC2)NC(=O)[C@@H]2CCCN2C(=O)[C@H](CCc2cc(F)c(C(F)(F)F)c(F)c2)NC(=O)CN(C)C(=O)[C@H](Cc2ccc(C(F)(F)F)cc2)N2CC(C)[C@@H](C)C[C@@H](C2=O)N(C)C(=O)CN(C)C1=O (some centres unmarked)
14.7

Report IC50 on human lung cancer strain NCI-H441 for this entry: CCO[C@@H]1C[C@H]2C(=O)NC3(CCC3)C(=O)N(C)[C@@H](C3CCCC3)C(=O)N(C)[C@H](C(=O)N(C)C)CC(=O)N(C)[C@@H](CC3CC3)C(=O)N[C@@H]([C@@H](C)CC)C(=O)N(C)CC(=O)N(C)[C@H]3C/C=C\CCN(C3=O)[C@@H](Cc3ccc(C)cc3)C(=O)N(C)CC(=O)N[C@@H](CCc3ccc(Cl)c(Cl)c3)C(=O)N2C1
30.5

###

System: human lung cancer strain NCI-H441
protocolSummary: cells
recordedConditions: NCI-H441, 96 h, read-out: NCI-H441 IC50 (nM)
measurementLabel: IC50 (nM)
Provide only the numeric value, understood in nM.

For CCO[C@@H]1C[C@H]2C(=O)NC3(CCC3)C(=O)N(C)[C@@H](C(CC)CC)C(=O)N(C)[C@H](C(=O)N(C)C)CC(=O)N(C)[C@@H](CC3CC3)C(=O)N[C@@H]([C@@H](C)CC)C(=O)N(C)CC(=O)N(C)[C@H]3C/C=C\CCN(C3=O)[C@@H](CC3CCC(F)(F)CC3)C(=O)N(C)CC(=O)N[C@@H](CCc3cc(F)c(C(F)(F)F)c(F)c3)C(=O)N2C1 [PP1429] , write its IC50.
38.7

Answer with the recorded IC50 of CCO[C@@H]1C[C@H]2C(=O)NC3(CCC3)C(=O)N(C)[C@@H](C3CCCC3)C(=O)N(C)[C@H](C(=O)N(C)C)CC(=O)N(C)[C@@H](CC3CC3)C(=O)N[C@@H]([C@@H](C)CC)C(=O)N(C)CC(=O)N(C)[C@H]3C/C=C\CCN(C3=O)[C@@H](Cc3ccc(F)cc3)C(=O)N(C)CC(=O)N[C@@H](CCc3ccc4sccc4c3)C(=O)N2C1 [PP1426] only.
475

State, in one line, measured IC50 of CCO[C@@H]1C[C@H]2C(=O)NC3(CCC3)C(=O)N(C)[C@@H](C3CCCC3)C(=O)N(C)[C@H](C(=O)N(C)C)CC(=O)N(C)[C@@H](CC3CC3)C(=O)N[C@@H]([C@@H](C)CC)C(=O)N(C)CC(=O)N(C)[C@H]3C/C=C\CCN(C3=O)[C@@H](Cc3ccc(F)cc3C)C(=O)N(C)CC(=O)N[C@@H](CCc3cc(F)c(Cl)c(F)c3)C(=O)N2C1 [PP1477]
309

Assign IC50 to the following record: CCO[C@@H]1C[C@H]2C(=O)NC3(CCC3)C(=O)N(C)[C@@H](C3CCCC3)C(=O)N(C)[C@H](C(=O)N(C)C)CC(=O)N(C)[C@@H](CC)C(=O)N[C@@H]([C@@H](C)CC)C(=O)N(C)CC(=O)N(C)[C@H]3C/C=C\CCN(C3=O)[C@@H](Cc3ccc(C(F)(F)F)cc3)C(=O)N(C)CC(=O)N[C@@H](CCc3cc(F)c(Cl)c(F)c3)C(=O)N2C1 [PP1262]
56.7

Name the recorded IC50 of the compound listed here: CCO[C@@H]1C[C@H]2C(=O)NC3(CCC3)C(=O)N(C)[C@@H](C3CCCC3)C(=O)N(C)[C@H](C(=O)N(C)C)CC(=O)N(C)[C@@H](CC3CCCC3)C(=O)N[C@@H]([C@@H](C)CC)C(=O)N(C)CC(=O)N(C)[C@H]3C/C=C\CCN(C3=O)[C@@H](Cc3ccc(C(F)(F)F)cc3)C(=O)N(C)CC(=O)N[C@@H](CCc3cc(F)c(Cl)c(F)c3)C(=O)N2C1 [PP1264]
15.9

Using known records, supply IC50 for CCCOC[C@H]1C(=O)N[C@@H]([C@@H](C)CC)C(=O)N(C)CC(=O)N(C)[C@H]2C/C=C\CCN(C2=O)[C@@H](Cc2ccc(C)cc2)C(=O)N(C)CC(=O)N[C@@H](CCc2cc(F)c(C(F)(F)F)c(F)c2)C(=O)N2C[C@H](OCC)C[C@H]2C(=O)NC2(CC(C)(C)C2)C(=O)N(C)[C@@H](C2CCCC2)C(=O)N(C)[C@H](C(=O)N(C)CC)CC(=O)N1C [PP1577]
6.7

Complete the entry with IC50 for CC[C@H](C)[C@@H]1NC(=O)[C@H](CC)N(C)C(=O)C[C@@H](C(=O)N(C)C)N(C)C(=O)[C@H](C2CCCC2)N(C)C(=O)C2(CCCC2)NC(=O)[C@@H]2CCCN2C(=O)[C@H](CCc2ccc(C(F)(F)F)c(Cl)c2)NC(=O)CN(C)C(=O)[C@H](Cc2ccc(C(F)(F)F)cc2)N2C[C@H](C)CC[C@@H](C2=O)N(C)C(=O)CN(C)C1=O [PP1336]
10.8
